# Experimental protocol: Ratio of Ki for bovine pancreatic trypsin to Ki for human thrombin
Quantity: Ratio Ki
Answer with a number only.

O=S(=O)(/C=C/c1cccc(F)c1)Nc1cccc(OCc2cn(Cc3cc4ccccc4s3)nn2)c1 :: 48

IN: Using the record for `O=[N+]([O-])c1cccc(/C=C/S(=O)(=O)Nc2cccc(OCc3cn(Cc4nc5ccccc5s4)nn3)c2)c1` , state its measured Ratio Ki.
OUT: 41

IN: Using the record for `O=S(=O)(/C=C/c1cccc(C(F)(F)F)c1)Nc1cccc(OCc2cn(Cc3cc4ccccc4s3)nn2)c1` , state its measured Ratio Ki.
OUT: 64
